B1: FBXO39 (parent)
chain: PSRVHASEVESAVWYVKKFGRYLE

- Variants of: B1
- procedure.details: protein stability index of a GFP-peptide fusion (GPS, HEK-293T) (PSI 1-6); higher = more stable;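 note: lentivirally expressed fusions sorted by FACS into six bins by GFP to DsRed ratio, PSI derived from sequencing read proportions per bin multiplied by bin number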
- condition.parameters: c terminus: a fixed tail appended
value.kind: protein stability index

[[record]]
variant_id = "Y15N"
value_kind = "protein stability index"
reading = 3.31

[[record]]
variant_id = "Y22C"
value_kind = "protein stability index"
reading = 2.44

[[record]]
variant_id = "R3I"
value_kind = "protein stability index"
reading = 2.18

[[record]]
variant_id = "L23M"
value_kind = "protein stability index"
reading = 2.09

[[record]]
variant_id = "V4N"
value_kind = "protein stability index"
reading = 2.13

[[record]]
variant_id = "A12Q"
value_kind = "protein stability index"
reading = 3.27

[[record]]
variant_id = "V16F"
value_kind = "protein stability index"
reading = 1.83

[[record]]
variant_id = "W14S"
value_kind = "protein stability index"
reading = 3.22

[[record]]
variant_id = "S2A"
value_kind = "protein stability index"
reading = 1.71

[[record]]
variant_id = "R21W"
value_kind = "protein stability index"
reading = 2.08

[[record]]
variant_id = "K18C"
value_kind = "protein stability index"
reading = 2.36

[[record]]
variant_id = "E8M"
value_kind = "protein stability index"
reading = 3.03

[[record]]
variant_id = "R3K"
value_kind = "protein stability index"
reading = 1.83

[[record]]
variant_id = "S7P"
value_kind = "protein stability index"
reading = 2.33

[[record]]
variant_id = "L23I"
value_kind = "protein stability index"
reading = 2.17

[[record]]
variant_id = "K17C"
value_kind = "protein stability index"
reading = 1.34

[[record]]
variant_id = "K18W"
value_kind = "protein stability index"
reading = 2.4

[[record]]
variant_id = "V13P"
value_kind = "protein stability index"
reading = 3.59

[[record]]
variant_id = "V9A"
value_kind = "protein stability index"
reading = 2.09

[[record]]
variant_id = "W14H"
value_kind = "protein stability index"
reading = 3.44

[[record]]
variant_id = "G20P"
value_kind = "protein stability index"
reading = 1.64

[[record]]
variant_id = "R21I"
value_kind = "protein stability index"
reading = 2.19

